Reference source for all entries: the supplement of paper PMC6522484

test system: HCT116; test: cell viability (CellTiter-Glo) relative to plate median (fraction of plate median); higher = more viable cells; details: 5 µM; treatment time 24 h; reporter: TCF4/Wnt
Provide the reported cell viability of each item.
Give bare numbers.

Look over these answered cases.
{"compound": "CC(O)(P(=O)(O)O)P(=O)(O)O", "observed_property": "cell viability", "reported_value": 0.943}
{"compound": "C[C@]12CCC(=O)C=C1C=C[C@@H]1[C@@H]2CC[C@@]2(C)[C@H]1CC[C@@]21CCC(=O)O1", "observed_property": "cell viability", "reported_value": 0.899}
{"compound": "O=C(O)c1cc(=O)c2ccccc2o1", "observed_property": "cell viability", "reported_value": 0.961}
{"compound": "CC(C)(C)NC[C@H](O)c1ccc(O)c(CO)c1", "observed_property": "cell viability", "reported_value": 0.93}
{"compound": "O=C(O)c1ccccc1OP(=O)(O)O", "observed_property": "cell viability", "reported_value": 0.967}

Moving on to another compound below.
Exam item: Need cell viability, item CC1(C)CC2C1CCC1(C)OC1CCC2(C)O (stereo unspecified)
Marked response: 1

* * *

tested on: DLD1; experiment: cell viability (CellTiter-Glo) relative to plate median (fraction of plate median); higher = more viable cells; details: 5 µM; treatment time 24 h; reporter: 7TFP
Provide the reported cell viability of each item.
Numbers only.

Look over these answered cases.
{"smiles_data": "CC(C)=CCc1c2c(c3occ(-c4ccc(O)cc4)c(=O)c3c1O)C=CC(C)(C)O2", "reported_value": 0.955}
{"smiles_data": "O=C(O)c1ccccc1Nc1ccccc1", "reported_value": 1.08}
{"smiles_data": "CC(=O)CC(=O)CCC(=O)O", "reported_value": 1.02}
{"smiles_data": "O=C(Oc1cc(OC(=O)c2ccccc2)c2c(c1)O[C@H](c1ccc(OC(=O)c3ccccc3)c(OC(=O)c3ccccc3)c1)[C@@H](OC(=O)c1ccccc1)C2)c1ccccc1", "reported_value": 1.04}
{"smiles_data": "CN(C)CCOC(c1ccccc1)c1ccccc1.Cn1c(=O)c2[nH]c(Cl)nc2n(C)c1=O", "reported_value": 0.909}
{"smiles_data": "O=C(O)c1cccnc1", "reported_value": 1.05}
{"smiles_data": "CC1(C)O[C@@H]2C[C@H]3[C@@H]4C[C@H](F)C5=CC(=O)C=C[C@]5(C)[C@@]4(F)[C@@H](O)C[C@]3(C)[C@]2(C(=O)CO)O1", "reported_value": 0.955}
{"smiles_data": "O.O.O.O.O=C([O-])CC(O)(CC(=O)[O-])C(=O)[O-].[Li+].[Li+].[Li+]", "reported_value": 0.955}

Exam item: Need cell viability, item `COc1cc(-c2cc(=O)c3c(O)c(OC)c(OC)c(OC)c3o2)cc(OC)c1OC`
Marked response: 0.948

* * *

system: SW480; assay: cell viability (CellTiter-Glo) relative to plate median (fraction of plate median); higher = more viable cells; settings: 5 µM; treatment time 24 h; reporter: 7TFP
Provide the reported cell viability of each item.
One number for each entry.

{"compound": "Cc1cccc(C(=O)O)c1O", "cell viability": 0.96}
{"compound": "C[C@@H]1O[C@@H](O[C@H]2[C@H](O[C@H]3CC[C@@]4(C)[C@@H](CC[C@]5(C)[C@@H]4CC=C4[C@@H]6CC(C)(C)CC[C@]6(C(=O)O)CC[C@]45C)[C@]3(C)CO)OC[C@H](O)[C@@H]2O)[C@H](O)[C@H](O)[C@H]1O", "cell viability": 1.03}
{"compound": "COc1cc2c(cc1OC)-c1cc3ccc(OC)c(OC)c3c[n+]1CC2", "cell viability": 0.949}
{"compound": "C=C(CC)C(=O)c1ccc(OCC(=O)O)c(Cl)c1Cl", "cell viability": 1.03}
{"compound": "CC(C)NCC(O)COc1ccc(CC(N)=O)cc1 (stereo unspecified)", "cell viability": 1.02}

Below are 2 compounds. Give each one its cell viability.
1. Cc1cc(C(C)(C)CC(C)(C)C)ccc1OCCOCC[N+](C)(C)Cc1ccccc1
2. CN1CC(=O)NC1=N

Marked response:
[1.08, 1.02]

Below are 6 compounds. Give each one its cell viability.
1. OC[C@H]1O[C@H]([S-])[C@H](O)[C@@H](O)[C@@H]1O.[Au+]
2. CCCc1cc(C(N)=S)ccn1
3. CC(C)(C(=O)O)c1ccc(C(O)CCCN2CCC(C(O)(c3ccccc3)c3ccccc3)CC2)cc1 (stereo unspecified)
4. CS(=O)(=O)Nc1ccc([N+](=O)[O-])cc1Oc1ccccc1
5. CC(=O)N[C@@H](CS)C(=O)O
6. CCCCNc1cc(C(=O)O)cc(S(N)(=O)=O)c1Oc1ccccc1

Marked response:
[1.11, 0.976, 1.05, 0.978, 0.993, 1.04]

Below are 4 compounds. Give each one its cell viability.
1. CO/N=C(\C(=O)N[C@@H]1C(=O)N2C(C(=O)O)=C(COC(N)=O)CS[C@H]12)c1ccco1
2. OCc1ccccc1O[C@@H]1O[C@H](CO)[C@@H](O)[C@H](O)[C@H]1O
3. CCC[C@@H]1C[C@@H](C(=O)N[C@@H]([C@H]2O[C@H](SC)[C@H](O)[C@@H](O)[C@H]2O)[C@H](C)Cl)N(C)C1
4. C[C@@H]1C[C@H]2[C@@H]3CCC4=CC(=O)C=C[C@]4(C)[C@@]3(F)[C@@H](O)C[C@]2(C)[C@@]1(O)C(=O)CO

Marked response:
1: 0.938; 2: 0.969; 3: 1.07; 4: 0.977

Below are 2 compounds. Give each one its cell viability.
1. C[N+](C)(C)CCCCCC[N+](C)(C)C
2. O=c1cc(-c2ccccc2)oc2cc(O)cc(O)c12

Marked response:
[0.93, 1.02]

Below are 2 compounds. Give each one its cell viability.
1. CC(C)Cn1c(=O)n(C)c(=O)c2nc[nH]c21
2. CC(=O)N(c1onc(C)c1C)S(=O)(=O)c1ccc(N)cc1

Marked response:
1: 0.959; 2: 0.935

* * *

Provide the reported cell viability of each item.
test system: HCT116; experiment: cell viability (CellTiter-Glo) relative to plate median (fraction of plate median); higher = more viable cells; details: 5 µM; treatment time 24 h; reporter: TCF4/Wnt
Give bare numbers.

Look over these answered cases.
{"compound": "CCCC1O[C@@H]2C[C@H]3[C@@H]4CCC5=CC(=O)C=C[C@]5(C)[C@H]4[C@@H](O)C[C@]3(C)[C@]2(C(=O)CO)O1 (stereo not given in full)", "cell viability": 0.938}
{"compound": "C[C@@H]1O[C@@H](O[C@H]2[C@H](O[C@H]3CC[C@@]4(C)[C@@H](CC[C@]5(C)[C@@H]4CC=C4[C@@H]6CC(C)(C)CC[C@]6(C(=O)O)CC[C@]45C)[C@]3(C)CO)OC[C@H](O)[C@@H]2O)[C@H](O)[C@H](O)[C@H]1O", "cell viability": 1.05}
{"compound": "C=C(CC[C@@H](C(=O)O)[C@H]1CC[C@@]2(C)C3=C(CC[C@]12C)[C@@]1(C)CC[C@H](O)C(C)(C)[C@@H]1CC3)C(C)C [Eburicoic acid]", "cell viability": 0.923}
{"compound": "CC(=O)Oc1ccc2c(c1OC(C)=O)OCC1(O)Cc3c(cc(OC(C)=O)c(OC(C)=O)c3OC(C)=O)C21 (stereo not given)", "cell viability": 1.02}
{"compound": "CN[C@@H]1[C@H](O[C@H]2[C@H](O[C@H]3[C@H](O)[C@@H](O)[C@H](N=C(N)N)[C@@H](O)[C@@H]3N=C(N)N)O[C@@H](C)[C@]2(O)C=O)O[C@@H](CO)[C@H](O)[C@H]1O", "cell viability": 0.936}
{"compound": "COc1cccc2c1C(=O)c1c(O)c3c(c(O)c1C2=O)CC(O)(C(C)O)CC3OC1CC(NC=O)C(O)C(C)O1 (stereo not given) [Baumycin C2]", "cell viability": 1}
{"compound": "CCCCOc1ccc(C(=O)CCN2CCCCC2)cc1", "cell viability": 0.87}
{"compound": "Cc1cccc2c3c(ccc12)C1=C(C(=O)C3=O)[C@@H](C)CO1", "cell viability": 0.825}
{"compound": "C[C@]12CC[C@@H]3c4ccc(O)cc4CC[C@H]3[C@@H]1CCC2=O", "cell viability": 1.05}
{"compound": "CC1=C(/C=C/C(C)=C/C=C/C(C)=C/C=C/C=C(C)/C=C/C=C(C)/C=C/C(=O)[C@]2(C)C[C@@H](O)CC2(C)C)C(C)(C)C[C@H](O)C1", "cell viability": 0.966}

Below are 5 compounds. Give each one its cell viability.
1. CC1(C)C(=O)[C@H]2C[C@]3(O)C4=CC(=O)O[C@@H](c5ccoc5)[C@@]4(C)CCC3[C@](C)(C2=O)[C@H]1CC(=O)O (stereo not given in full)
2. CC(C)CCC[C@@H](C)C1CC[C@H]2[C@@H]3CCC4CC(=O)CC[C@]4(C)[C@H]3CC[C@]12C (stereo not given in full)
3. Nc1ccn([C@@H]2O[C@H](CO)[C@@H](O)[C@@H]2O)c(=O)n1
4. Cc1cc(O)c(C)c(O)c1C(=O)O
5. O=S(=O)(O)CCS

Marked response:
[1.1, 1.01, 0.849, 0.927, 1.06]
